target: TLR8 (Homo sapiens); construct: host or cells: HEK293 (HEK-BLUE-hTLR8); test: TLR8 cell based assay (HEK-BLUE-hTLR8, SEAP reporter linked to NF-κB activation); conditions: HEK-BLUE-hTLR8 cells, 24 h treatment, SEAP/QUANTI-Blue readout
pEC50: −log10 of the molar value.
The entries below come with measured pEC50 values attached.

Consider the worked cases shown below.
compound	pEC50
CCCN(CCC)C(=O)C1=Cc2ccc(-c3ccc4c(=O)n(Cc5nc(OC)cc(OC)n5)ncc4c3)cc2N=C(N)C1 [Compound 1-8-21]	> 7.00
CCCN(CCC)C(=O)C1=Cc2ccc(-c3ccc4c(=O)n(CC(C)(C)O)cnc4c3)cc2N=C(N)C1 [Compound 1-7-5]	> 7.00
CCCN(CCC)C(=O)C1=Cc2ccc(-c3ccc4c(=O)n(CCS(C)(=O)=O)c(=O)n(C)c4c3)cc2N=C(N)C1 [Compound 1-9-4]	6.00 to 7.00

Give the value of pEC50 reported for the following: CCCN(CCC)C(=O)C1=Cc2ccc(-c3ccc4c(=O)n(Cc5nc(C)cc(C)n5)ncc4c3)cc2N=C(N)C1 [Compound 1-8-17] > 7.00

###

Biological target: TLR8 (Homo sapiens, UniProt Q9NR97)
Construct: host or cells: HEK293 (HEK-BLUE-hTLR8)
Sequence (Q9NR97 27-1041): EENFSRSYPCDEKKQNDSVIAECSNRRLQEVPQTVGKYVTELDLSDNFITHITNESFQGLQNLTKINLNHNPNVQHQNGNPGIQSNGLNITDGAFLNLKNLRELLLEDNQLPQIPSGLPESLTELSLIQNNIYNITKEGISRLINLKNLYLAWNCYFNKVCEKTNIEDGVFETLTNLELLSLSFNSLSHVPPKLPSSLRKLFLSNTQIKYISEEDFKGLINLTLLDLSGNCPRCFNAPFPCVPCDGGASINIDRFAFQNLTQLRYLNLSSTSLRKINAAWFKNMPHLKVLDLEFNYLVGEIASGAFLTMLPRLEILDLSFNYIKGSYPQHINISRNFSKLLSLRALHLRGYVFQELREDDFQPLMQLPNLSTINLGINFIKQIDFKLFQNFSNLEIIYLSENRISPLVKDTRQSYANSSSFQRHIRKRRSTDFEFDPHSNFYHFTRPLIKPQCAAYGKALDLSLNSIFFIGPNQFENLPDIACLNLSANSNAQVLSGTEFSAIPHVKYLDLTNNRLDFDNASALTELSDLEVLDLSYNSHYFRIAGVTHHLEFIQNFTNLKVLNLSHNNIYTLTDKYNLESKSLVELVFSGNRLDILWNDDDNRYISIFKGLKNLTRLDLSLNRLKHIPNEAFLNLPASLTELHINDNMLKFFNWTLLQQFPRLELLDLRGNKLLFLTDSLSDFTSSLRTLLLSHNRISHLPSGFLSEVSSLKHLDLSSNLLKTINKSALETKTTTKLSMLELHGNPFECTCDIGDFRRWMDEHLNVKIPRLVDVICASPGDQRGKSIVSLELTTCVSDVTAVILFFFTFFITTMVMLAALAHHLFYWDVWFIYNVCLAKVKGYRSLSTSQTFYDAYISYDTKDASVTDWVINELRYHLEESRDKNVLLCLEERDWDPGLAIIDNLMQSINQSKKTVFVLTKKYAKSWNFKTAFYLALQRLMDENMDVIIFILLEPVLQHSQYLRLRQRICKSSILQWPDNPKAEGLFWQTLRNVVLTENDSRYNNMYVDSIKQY
Test: TLR8 cell based assay (HEK-BLUE-hTLR8, SEAP reporter linked to NF-κB activation)
Settings: HEK-BLUE-hTLR8 cells, 24 h treatment, SEAP/QUANTI-Blue readout
Method: In this assay, the bioactivity of compound of formula Iw as measured using a cell based assay. […] The activity of specific TLR agonists was assessed using the secretory embryonic alkaline phosphatase (SEAP) reporter gene that is linked to NF-κB activation in response to TLR stimulation. The SEAP activity was measured using the Quanti-Blue substrate (InvivoGen) after TLR agonist treatment. […] The data were analyzed using the GraphPad to get EC50 values and fitting dose response curves of the compounds.
recorded-endpoint: EC50

Consider the worked cases shown below.
molecule	EC50
CCCN(CCC)C(=O)C1=Cc2c(Cl)cc(-c3ccc4c(=O)n(Cc5ncccn5)ncc4c3)cc2N=C(N)C1	< 0.1 µM
CCCN(CCC)C(=O)C1=Cc2ccc(-c3ccc4c(=S)n(CCS(C)(=O)=O)ncc4c3)cc2N=C(N)C1	< 0.1 µM

Here is another compound to look at.
Give the value of EC50 reported for the following: CCCN(CCC)C(=O)C1=Cc2ccc(-c3ccc4c(=O)n(CC(=O)O)ccc4c3)cc2N=C(N)C1 1 to 10 µM

###

target: TLR8 (Homo sapiens); construct: host or cells: HEK293 (HEK-BLUE-hTLR8); assay: TLR8 cell based assay (HEK-BLUE-hTLR8, SEAP reporter linked to NF-κB activation); conditions: HEK-BLUE-hTLR8 cells, 24 h treatment, SEAP/QUANTI-Blue readout
recorded-endpoint: EC50

Give the value of EC50 reported for the following: CCCN(CCC)C(=O)C1=Cc2ccc(-c3ccc4c(=O)n(CC(N)=O)c(=O)n(C)c4c3)cc2N=C(N)C1 100 to 1000 nM

Give the value of EC50 reported for the following: CCCN(CCC)C(=O)C1=Cc2ccc(-c3ccc4c(=O)n(CCS(C)(=O)=O)ncc4c3)cc2N=C(N)C1 < 100 nM

Give the value of EC50 reported for the following: CCCN(CCC)C(=O)C1=Cc2ccc(-c3ccc4c(=O)n(CC(N)=O)ccc4c3)cc2N=C(N)C1 < 100 nM

Give the value of EC50 reported for the following: CCCCn1ccc2cc(-c3ccc4c(c3)N=C(N)CC(C(=O)N(CCC)CCC)=C4)ccc2c1=O 100 to 1000 nM

Give the value of EC50 reported for the following: CCCN(CCC)C(=O)C1=Cc2ccc(-c3ccc4c(=O)n(CCNS(C)(=O)=O)c(=O)n(C)c4c3)cc2N=C(N)C1 < 100 nM

Give the value of EC50 reported for the following: CCCN(CCC)C(=O)C1=Cc2ccc(-c3ccc4c(=O)n(CCO)cnc4c3)cc2N=C(N)C1 < 100 nM

Give the value of EC50 reported for the following: CCCN(CCC)C(=O)C1=Cc2ccc(-c3ccc4c(=O)n(Cc5ccno5)ccc4c3)cc2N=C(N)C1 100 to 1000 nM

Give the value of EC50 reported for the following: CCCN(CCC)C(=O)C1=Cc2ccc(-c3ccc4c(=O)n(CC[S+](C)[O-])ncc4c3)cc2N=C(N)C1 (stereo not drawn) < 100 nM

Give the value of EC50 reported for the following: CCCN(CCC)C(=O)C1=Cc2c(Cl)cc(-c3ccc4c(=O)n(CCS(C)(=O)=O)ncc4c3)cc2N=C(N)C1 100 to 1000 nM

Give the value of EC50 reported for the following: CCCN(CCC)C(=O)C1=Cc2ccc(-c3ccc4c(=O)n(CCNS(N)(=O)=O)ccc4c3)cc2N=C(N)C1 100 to 1000 nM

Give the value of EC50 reported for the following: CCCN(CCC)C(=O)C1=Cc2c(cc(-c3ccc4c(=O)n(CCS(C)(=O)=O)ncc4c3)cc2OC)N=C(N)C1 100 to 1000 nM
